Hello, the source for this data is ChEMBL document CHEMBL2176963, in case you need it.

experiment: Antiproliferative activity against mouse BA/F3 cells expressing Bcr-Abl E355G mutant after 72 hrs by CCK-8 assay; settings: BaF3, 72 h
reported endpoint: IC50
Write the quantity with the unit trailing the number.

What the record says about Cc1ccc(NC(=O)c2ccc(CN3CCN(C)CC3)cc2)cc1Nc1nccc(-c2cccnc2)n1 : IC50 is 362 nM

====

experiment: Antiproliferative activity against mouse BA/F3 cells expressing Bcr-Abl Y253F mutant after 72 hrs by CCK-8 assay; conditions: BaF3, 72 h
reported endpoint: pIC50
// returns pIC50 (minus log10 of molar concentration), number only

Worked cases, pIC50 given:
INSERT INTO results (compound, data_value) VALUES
  ('CN1CCN(Cc2ccc(NC(=O)c3ccc(Cl)c(-n4cc(-c5cnc6[nH]ncc6c5)nn4)c3)cc2C(F)(F)F)CC1', 9.28),
  ('Cc1ccc(NC(=O)c2ccc(CN3CCN(C)CC3)cc2)cc1Nc1nccc(-c2cccnc2)n1 [IMATINIB]', 5.84),
  ('Cc1ccc(C(=O)Nc2ccc(CN3CCN(C)CC3)c(C(F)(F)F)c2)cc1-n1cc(-c2cnc3[nH]ncc3c2)nn1', 9.46),
  ('Cc1cn(-c2cc(NC(=O)c3ccc(C)c(Nc4nccc(-c5cccnc5)n4)c3)cc(C(F)(F)F)c2)cn1 [NILOTINIB]', 7.22);

// next entry
What the record says about Cc1nc(Nc2ncc(C(=O)Nc3c(C)cccc3Cl)s2)cc(N2CCN(CCO)CC2)n1 [DASATINIB] : pIC50 is 9.24

====

experiment: Antiproliferative activity against mouse BA/F3 cells expressing Bcr-Abl Q252H mutant after 72 hrs by CCK-8 assay; settings: BaF3, 72 h
Reported values of IC50 for individual entries
Use nM as the unit, but write only the number.

What the record says about CN1CCN(Cc2ccc(NC(=O)c3ccc(Cl)c(-n4cc(-c5cnc6[nH]ncc6c5)nn4)c3)cc2C(F)(F)F)CC1 : IC50 is 7.55

What the record says about Cc1ccc(C(=O)Nc2ccc(CN3CCN(C)CC3)c(C(F)(F)F)c2)cc1-n1cc(-c2cnc3[nH]ncc3c2)nn1 : IC50 is 5.49

What the record says about Cc1cn(-c2cc(NC(=O)c3ccc(C)c(Nc4nccc(-c5cccnc5)n4)c3)cc(C(F)(F)F)c2)cn1 : IC50 is 150

What the record says about Cc1nc(Nc2ncc(C(=O)Nc3c(C)cccc3Cl)s2)cc(N2CCN(CCO)CC2)n1 : IC50 is 6.55

What the record says about Cc1ccc(NC(=O)c2ccc(CN3CCN(C)CC3)cc2)cc1Nc1nccc(-c2cccnc2)n1 : IC50 is 3760

====

experiment: Antiproliferative activity against human KU812 cells expressing wild type Bcr-Abl after 72 hrs by CCK-8 assay; details: KU812, 72 h
Response field label takes satisfied when IC50 is strictly below 0.4 nM and not satisfied in all other cases.

Field: example entries. Status: answers known.
INSERT INTO results (compound, discrete_label) VALUES
  ('Cc1ccc(C(=O)Nc2ccc(CN3CCN(C)CC3)c(C(F)(F)F)c2)cc1-n1cc(-c2cnc3cccnn23)nn1', 'not satisfied'),
  ('Cc1ccc(C(=O)Nc2ccc(CN3CCCN(C)CC3)c(C(F)(F)F)c2)cc1-n1cc(-c2cnc3[nH]ncc3c2)nn1', 'satisfied'),
  ('Cc1ccc(C(=O)Nc2ccc(CN3CCN(C)CC3)c(C(F)(F)F)c2)cc1-n1cc(-c2cnc(NC3CC3)nc2)nn1', 'satisfied'),
  ('Cc1cn(-c2cc(NC(=O)c3ccc(C)c(-n4cc(-c5cnc6[nH]ncc6c5)nn4)c3)cc(C(F)(F)F)c2)cn1', 'not satisfied'),
  ('Cc1ccc(C(=O)Nc2ccc(CN3CCN(C)CC3)c(C(F)(F)F)c2)cc1-n1cc(-c2cnc3ncccn23)nn1', 'not satisfied'),
  ('Cc1ccc(C(=O)Nc2ccc(CN3CC[C@@H](N(C)C)C3)c(C(F)(F)F)c2)cc1-n1cc(-c2cnc3[nH]ncc3c2)nn1', 'satisfied');

Prompt line: Quick check: IC50 of Cc1ccc(C(=O)Nc2ccc(CN3CCN(C)CC3)c(C(F)(F)F)c2)cc1-n1cc(-c2cnc(N3CCCCC3)nc2)nn1 under 0.4 nM?
Response line: not satisfied

====

test: Antiproliferative activity against human KU812 cells expressing wild type Bcr-Abl after 72 hrs by CCK-8 assay; details: KU812, 72 h
reported endpoint: IC50 (nM)
Use nM as the unit, but write only the number.

Worked cases, IC50 given:
INSERT INTO results (compound, unit_annotation, data_value) VALUES
  ('Cc1ccc(C(=O)Nc2ccc(CN3CCN(C)CC3)c(C(F)(F)F)c2)cc1-n1cc(-c2cnc3[nH]nc(C)c3c2)nn1', 'nM', 0.15),
  ('Cc1ccc(C(=O)Nc2ccc(CN3CCN(C)CC3)c(C(F)(F)F)c2)cc1-n1cc(-c2cnc3ncnn3c2)nn1', 'nM', 11.2),
  ('Cc1ccc(Nc2ncc3c(n2)N(C)C(=O)N(c2cc(NC(=O)c4cccc(C(F)(F)F)c4)ccc2C)C3)cn1', 'nM', 0.08),
  ('Cc1ccc(C(=O)Nc2ccc(CN3CCN(C)CC3)c(C(F)(F)F)c2)cc1-n1cc(-c2cnc(NCc3ccccc3)nc2)nn1', 'nM', 1.89),
  ('Cc1ccc(C(=O)Nc2ccc(CN3CC[C@H](N(C)C)C3)c(C(F)(F)F)c2)cc1-n1cc(-c2cnc3[nH]ncc3c2)nn1', 'nM', 0.68);

What the record says about CNc1ncc(-c2cn(-c3cc(C(=O)Nc4ccc(CN5CCN(C)CC5)c(C(F)(F)F)c4)ccc3C)nn2)cn1 : IC50 is 0.16

What the record says about Cc1ccc(C(=O)Nc2ccc(CN3CCOCC3)c(C(F)(F)F)c2)cc1-n1cc(-c2cnc3[nH]ncc3c2)nn1 : IC50 is 0.46

What the record says about Cc1ccc(C(=O)Nc2ccc(CN3CCCC3)c(C(F)(F)F)c2)cc1-n1cc(-c2cnc3[nH]ncc3c2)nn1 : IC50 is 0.19

What the record says about Cc1ccc(C(=O)Nc2cc(-n3cncn3)cc(C(F)(F)F)c2)cc1-n1cc(-c2cnc3[nH]ncc3c2)nn1 : IC50 is 0.46

What the record says about Cc1ccc(C(=O)Nc2ccc(CN3CCN(C)CC3)c(C(F)(F)F)c2)cc1-n1cc(-c2cnn3cccnc23)nn1 : IC50 is 1.51

What the record says about CCNc1ncc(-c2cn(-c3cc(C(=O)Nc4ccc(CN5CCN(C)CC5)c(C(F)(F)F)c4)ccc3C)nn2)cn1 : IC50 is 0.2

====

assay: Antiproliferative activity against mouse BA/F3 cells expressing Bcr-Abl E355G mutant after 72 hrs by CCK-8 assay; conditions: BaF3, 72 h
reported endpoint: IC50 (nM)
Use nM as the unit, but write only the number.

Worked cases, IC50 given:
INSERT INTO assay_data (compound, reported_endpoint, data_value) VALUES
  ('Cc1cn(-c2cc(NC(=O)c3ccc(C)c(Nc4nccc(-c5cccnc5)n4)c3)cc(C(F)(F)F)c2)cn1', 'IC50', 8.38),
  ('Cc1nc(Nc2ncc(C(=O)Nc3c(C)cccc3Cl)s2)cc(N2CCN(CCO)CC2)n1', 'IC50', 0.58),
  ('Cc1ccc(C(=O)Nc2ccc(CN3CCN(C)CC3)c(C(F)(F)F)c2)cc1-n1cc(-c2cnc3[nH]ncc3c2)nn1', 'IC50', 0.37);

// next entry
What the record says about CN1CCN(Cc2ccc(NC(=O)c3ccc(Cl)c(-n4cc(-c5cnc6[nH]ncc6c5)nn4)c3)cc2C(F)(F)F)CC1 : IC50 is 0.3

====

test: Antiproliferative activity against human KU812 cells expressing wild type Bcr-Abl after 72 hrs by CCK-8 assay; settings: KU812, 72 h
reported endpoint: IC50 (nM)
Use nM as the unit, but write only the number.

Worked cases, IC50 given:
INSERT INTO measurements (compound, reported_endpoint, unit_annotation, data_value) VALUES
  ('CN1CCN(Cc2ccc(NC(=O)c3ccc(C4CC4)c(-n4cc(-c5cnc6[nH]ncc6c5)nn4)c3)cc2C(F)(F)F)CC1', 'IC50', 'nM', 4.05),
  ('CC(C)c1ccc(C(=O)Nc2ccc(CN3CCN(C)CC3)c(C(F)(F)F)c2)cc1-n1cc(-c2cnc3[nH]ncc3c2)nn1', 'IC50', 'nM', 14.2),
  ('CN1CCN(Cc2ccc(NC(=O)c3ccc(Br)c(-n4cc(-c5cnc6[nH]ncc6c5)nn4)c3)cc2C(F)(F)F)CC1', 'IC50', 'nM', 0.1),
  ('Cc1ccc(C(=O)Nc2ccc(CN3CCN(C)CC3)c(C(F)(F)F)c2)cc1-n1cc(-c2ccc3[nH]ncc3c2)nn1', 'IC50', 'nM', 12.2),
  ('Cc1ccc(C(=O)Nc2ccc(CN3CCC(N4CCN(C)CC4)CC3)c(C(F)(F)F)c2)cc1-n1cc(-c2cnc3[nH]ncc3c2)nn1', 'IC50', 'nM', 1.48);

What the record says about Cc1ccc(C(=O)Nc2ccc(CN3CCN(C)CC3)c(C(F)(F)F)c2)cc1-n1cc(-c2cnc3[nH]ccc3c2)nn1 : IC50 is 0.14
